# System: RAW 264.7 cells
# PROCEDURE_SUMMARY: Lactate dehydrogenase (LDH) cytotoxicity assay
# Format: cell-based, murine
# MEASUREMENT_CONDITIONS: RAW 264.7 cells, cell viability by LDH release
# Protocol: LDH assay was used to evaluate the toxicity of the studied samples towards macrophage cultures. The release of LDH (cytoplasmic enzyme lactate dehydrogenase) from RAW 264.7 cells treated with samples was determined using 50 µL of cell culture supernatant collected 24 h after the treatment, as described in the previous section. […] Tests were performed in triplicate and the mean value and standard deviation were calculated.
REPORTED_ENDPOINT: toxicity (LDH release), in words

C=C1CC(O)C(Br)C(C)(C)C12CCC(C)(O)C(Cl)C2 (stereo not shown) ... no toxicity whatsoever
CC1CCC23C1CCC2(C)CC(C)C3(C)O (stereo not shown) ... no toxicity whatsoever
C=C1C[C@@H](O)CC(C)(C)[C@]12CCC(C)=C(Cl)C2 ... no toxicity whatsoever
